# Measured On: T1, GgeAgo_DM (Geobacillus genomosp. 3, UniProt S5Z517 1-710, D502A;D571A)
# T1 sequence: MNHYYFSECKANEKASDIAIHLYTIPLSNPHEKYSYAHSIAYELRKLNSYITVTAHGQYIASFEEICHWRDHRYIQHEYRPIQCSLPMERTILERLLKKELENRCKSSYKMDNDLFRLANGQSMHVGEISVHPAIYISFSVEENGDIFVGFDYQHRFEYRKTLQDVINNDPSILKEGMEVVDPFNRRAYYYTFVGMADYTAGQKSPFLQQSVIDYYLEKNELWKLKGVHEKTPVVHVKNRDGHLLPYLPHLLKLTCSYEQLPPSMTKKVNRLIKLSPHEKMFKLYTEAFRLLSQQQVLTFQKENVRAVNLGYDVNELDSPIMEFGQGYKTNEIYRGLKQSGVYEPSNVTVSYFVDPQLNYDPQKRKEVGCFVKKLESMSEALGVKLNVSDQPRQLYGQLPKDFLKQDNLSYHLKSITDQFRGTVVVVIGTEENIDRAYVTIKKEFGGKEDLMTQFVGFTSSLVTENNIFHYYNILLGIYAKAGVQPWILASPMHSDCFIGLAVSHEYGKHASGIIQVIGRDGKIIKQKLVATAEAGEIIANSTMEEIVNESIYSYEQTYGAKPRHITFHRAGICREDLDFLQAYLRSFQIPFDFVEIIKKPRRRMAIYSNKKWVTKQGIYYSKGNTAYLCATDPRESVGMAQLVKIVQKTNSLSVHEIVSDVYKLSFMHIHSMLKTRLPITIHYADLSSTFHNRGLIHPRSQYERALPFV
# Procedure Details: fluorescence polarization
Assignment: determine reported pKd for the given binders.
Kindly note that pKd refers to -log10 of the concentration in mol/L and answer with the value alone.

query: Provide pKd value for the following binder: 5'OH-gDNA / U-tRNA (RNA target) (DNA:RNA, guide 5' OH) DNA: TGAGGTAGTAGGTTGTAT RNA: AAACGACGGCCAGUGCCAAGCUUACUAUACAACCUACUACCUCAU
result: 7.49

query: Provide pKd value for the following binder: 5'OH-gDNA / T-tDNA target (mixed, guide 5' OH) DNA 1: TGAGGTAGTAGGTTGTAT DNA 2: AAACGACGGCCAGTGCCAAGCTTACTATACAACCTACTACCTCAT
result: 7.70

query: Provide pKd value for the following binder: 5'P-gDNA / T-tDNA target (mixed, guide 5' phosphate) DNA 1: TGAGGTAGTAGGTTGTAT DNA 2: AAACGACGGCCAGTGCCAAGCTTACTATACAACCTACTACCTCAT
result: 8.06

query: Provide pKd value for the following binder: 5'P-gDNA / U-tRNA (RNA target) (DNA:RNA, guide 5' phosphate) DNA: TGAGGTAGTAGGTTGTAT RNA: AAACGACGGCCAGUGCCAAGCUUACUAUACAACCUACUACCUCAU
result: 7.97

Origin of values: paper PMC12657969
